target: HLA-B*08:01; assay: IEDB peptide-MHC binding, purified MHC/direct/fluorescence; filed as Kd, often an IC50 or EC50 that approximates it; bounds were set here for any values at or beyond the usual limits of such assays; details: source organism: Influenza A virus (A/Quail/Shanghai/8/96(H9N2))
Quantity measured: Kd

1) LVGGREWSY : ≥ 20 µM

* * *

biological target: HLA-A*69:01; experiment: IEDB peptide-MHC binding, purified MHC/direct/fluorescence; filed as Kd, often an IC50 or EC50 that approximates it; bounds were set here for any values at or beyond the usual limits of such assays; conditions: source organism: H9N2 subtype Influenza A virus (A/swine/Korea/S83/2004(H9N2))
Quantity measured: Kd

1. HFQKDAKVL : ≥ 20 µM

* * *

target: HLA-B*15:01; experiment: IEDB peptide-MHC binding, purified MHC/competitive/fluorescence; filed as Kd, often an IC50 or EC50 that approximates it; bounds were set here for any values at or beyond the usual limits of such assays; settings: source organism: Human immunodeficiency virus 1
Quantity measured: Kd

1. GSEEIKSLF : ≥ 20 µM
2. KSLYNTVATLY : ≥ 20 µM

* * *

biological target: HLA-A*30:02; assay: IEDB peptide-MHC binding, purified MHC/competitive/radioactivity; filed as Kd, often an IC50 or EC50 that approximates it; bounds were set here for any values at or beyond the usual limits of such assays; conditions: source organism: Lymphocytic choriomeningitis virus (strain Armstrong)
Quantity measured: Kd (nM)

1. KVNTTIARY : 5.93

* * *

molecular target: HLA-A*24:03; assay: IEDB peptide-MHC binding, purified MHC/competitive/fluorescence; filed as Kd, often an IC50 or EC50 that approximates it; bounds were set here for any values at or beyond the usual limits of such assays; conditions: source organism: Entamoeba dispar SAW760
Documented Kd across a set of sequences
Quantity measured: Kd

1) LVGNTLTTC : ≥ 20 µM
2) FELLHFISS : ≥ 20 µM

* * *

target: HLA-B*18:01; experiment: IEDB peptide-MHC binding, purified MHC/direct/fluorescence; filed as Kd, often an IC50 or EC50 that approximates it; bounds were set here for any values at or beyond the usual limits of such assays; settings: source organism: Amur virus
pKd: −log10 of the molar value.
Quantity measured: pKd

1. YECETYKEL : 8.28

* * *

biological target: HLA-A*02:01; assay: IEDB peptide-MHC binding, purified MHC/competitive/fluorescence; filed as Kd, often an IC50 or EC50 that approximates it; bounds were set here for any values at or beyond the usual limits of such assays; details: source organism: Coxiella burnetii RSA 331
pKd: −log10 of the molar value.
Quantity measured: pKd

1. HMNKLPLAK : ≤ 4.70

* * *

molecular target: HLA-A*68:02; experiment: IEDB peptide-MHC binding, purified MHC/competitive/radioactivity; filed as Kd, often an IC50 or EC50 that approximates it; bounds were set here for any values at or beyond the usual limits of such assays; conditions: source organism: Trypanosoma cruzi
pKd: −log10 of the molar value.
Quantity measured: pKd

1) FLSHNFTLV : 7.57
2) FLHKRFTLV : 5.88

* * *

molecular target: HLA-A*11:01; test: IEDB peptide-MHC binding, purified MHC/competitive/fluorescence; filed as Kd, often an IC50 or EC50 that approximates it; bounds were set here for any values at or beyond the usual limits of such assays; details: source organism: Rickettsia canadensis
Quantity measured: Kd

1. SSEADCFTY : ≥ 20 µM
